Data credit: PubChem BioAssay (NCI)

TGI values, listed per item
tested on: T-47D breast; assay: NCI tumour cell line growth inhibition, 48 h
measurement-label: TGI

> print(dat)
                                    compound       val
 1            CSc1ncnc2c1cnn2Cc1cn(CCCCO)nn1  > 100 µM
 2       CC1(C)NC(C)(C)/C(=N\O)C(=NO)/C1=N/O  > 100 µM
 3             CCOC(=O)/C(SC#N)=C(/N)N1CCCC1  > 100 µM
 4         CN(/N=C(\C(=O)O)c1ccccc1)C1=NCCN1  > 100 µM
 5  c1ccc(C(NC2CCCCC2NCCNC2CCCCC2NC(c2ccccc2)(c2ccccc2)c2ccccc2)(c2ccccc2)c2ccccc2)cc1 (stereo not given)  > 100 µM
 6  O=C(Nc1ccccc1)c1cc(S(=O)(=O)n2cc[nH]c2=O)c(S)cc1Cl  > 100 µM
 7  CN(C)CCNc1ccc(NCC[N+](C)(C)Cc2ccc([N+](=O)[O-])cc2)c2c1C(=O)c1ccccc1C2=O   > 25 µM
 8  CCC(=O)OC1CCC2C3CCC(=O)OC3C(C)(CCC(=O)O)CC12C (stereo not given)   6.16 µM
 9            c1ccc2c(c1)CCN2CCN1CCc2ccccc21   > 10 µM
10  Cc1cc(N(CCNc2ccnc3cc(Cl)ccc23)Cc2cccs2)nc(Cl)n1   2.88 µM
11           CCOP(=O)(/C=C/n1ccc(N)nc1=O)OCC  > 100 µM
12  C[CH2][Pb]([CH2]C)([CH2]C)[O]C(=O)COc1ccccc1   8.82 µM
13          Cc1cc2c3ccccc3nc2c2cc[nH]c(C)c12   38.9 µM
14       O=C(O)c1ccccc1Sc1ccccc1[N+](=O)[O-]  > 100 µM
15  COC(=O)CCc1ccc2c(c1)[C@H](C(=O)OC)[C@@H](c1ccc(O)cc1)O2  > 100 µM
16  O=C1O/C(=C\c2ccc(O)c(Br)c2)C(c2ccc(O)c(Cl)c2)=C1Br     47 µM
17  Nc1nc(N)c2c(Cl)c(CNc3ccc(C(=O)NC(CC(=O)O)C(=O)O)cc3)ccc2n1 (stereo not given)  > 100 µM
18                    NCCCN1CCN(c2ccccc2)CC1  > 100 µM
19  COc1ccc(N2CCN(C(=O)c3ccc(C(F)(F)F)nc3Nc3cc(Cl)ccc3C)CC2)cc1   26.2 µM
20  CCOC(=O)C(NC(=O)CC)(Nc1ccccc1OC)C(F)(F)F (stereo not given)  > 100 µM

* * *

test system: NCI/ADR-RES ovarian; experiment: NCI tumour cell line growth inhibition, 48 h
measurement-label: TGI

molecule	val
O=C(Nc1ccc([As]=[As]c2ccc(NC(=O)c3ccccc3)cc2)cc1)c1ccccc1 (stereo unspecified)	2.65 µM
Nn1c2c(c3ccccc3c1=O)C(=O)c1ccccc1-2	> 50 µM
Cc1ccc(S(=O)(=O)NC(C(=O)O)C(C)C)cc1 (stereo unspecified)	> 100 µM
CCOC(=O)/C(=C\NCc1ccc2c(c1)OCO2)c1nc2ccccc2[nH]1	> 100 µM
O=CC1=C(C(=O)OC(c2ccccc2)c2ccccc2)N2C(=O)[C@@H](NC(=O)Cc3cccs3)[C@H]2SC1	> 100 µM
Cc1cc2c3ccccc3nc2c2cc[nH]c(C)c12	> 100 µM
C=CCc1cccc2cc(C(N)=O)c(=N)oc12	> 100 µM
Cc1ccc(Cc2nc(=S)[nH][nH]2)cc1	> 100 µM
O=c1c2ccc(Cl)cc2oc2c(CNc3ccc(S(=O)(=O)Nc4nccs4)cc3)cccc12	> 100 µM
C=C1CCc2ccccc2C1=O	> 100 µM
C[CH2][Pb]([CH2]C)([CH2]C)[O]C(=O)COc1ccccc1	9.24 µM
Oc1cccc(-c2nc(-c3n[nH]c(=S)n3-c3ccccc3)cc3c2[nH]c2ccccc23)c1	69.7 µM
C=C1C(NC)CCC23CC24CCC2(C)C(C(C)=O)C(O)CC2(C)C4CCC13 (stereo unspecified)	> 100 µM
Cc1cc(Nc2ccc3c(c2)OCO3)c2cc3c(cc2n1)OCO3	18.5 µM
CC(=O)OC1CCC2(C)C(CCC3C4CC=C(C5(C)OCCO5)C4(C)CCC32)C1 (stereo unspecified)	46 µM
CC1=C(C(=O)N[C@@H](CC(C)C)C(=O)O)N2C(=O)[C@@H](NC(=O)[C@@H](N)Cc3ccccc3)[C@H]2SC1	> 100 µM
Nc1ccc(S(=O)(=O)Nc2cnc3ccccc3n2)cc1	> 100 µM
CN1CCN(CC(=O)N2c3ccccc3Sc3cc4ccccc4cc32)CC1	34.4 µM
NCCCN1CCN(c2ccccc2)CC1	> 100 µM
C/C(=N/OC(=O)c1cccc2c(=O)c3ccccc3[nH]c12)[C@H]1CC[C@H]2[C@@H]3CCC4=C/C(=N/OC(=O)c5cccc6c(=O)c7ccccc7[nH]c56)CC[C@]4(C)[C@H]3CC[C@]12C	43.1 µM
O=c1cc(NCC(O)CN2CCOCC2)n(Cc2ccccc2)c(=O)n1Cc1ccccc1 (stereo unspecified)	> 100 µM
